SYSTEM UNDER TEST: T1, human OPGbp [143-317] (human, UniProt O14788 143-317)
T1 construct: also called OPGL
T1 sequence (looked up): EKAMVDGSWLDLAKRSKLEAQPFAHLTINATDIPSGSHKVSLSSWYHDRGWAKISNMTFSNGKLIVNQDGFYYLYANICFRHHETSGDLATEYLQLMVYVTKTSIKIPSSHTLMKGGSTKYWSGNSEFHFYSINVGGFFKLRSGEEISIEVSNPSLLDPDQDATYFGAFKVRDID
PROTOCOL: SPR (BIAcore), immobilized OPGbp [143-317]
pKd: −log10 of the molar value.
Listed here: items and their measured pKd.
OUTCOME MEASURE: pKd

INSERT INTO results (binder, recorded_result) VALUES
  ('“AT” antibody variant N98Q (heavy chain CDR3) (antibody, name in Kabat numbering, V domains shown, not shown: human IgG1 CH1, hinge, CH2 and CH3) VH: QVQLVQSGAEVRKPGASVKVSCKASGYDFSNYAIHWVRQAPGQRLEWMGWINAGNGNTKFSQKFQGRITVTRDTAASTAYMELRSLRSEDTAVYYCARDSSQMVRGIIIAYYFDYWGQGTLVTVSS VL: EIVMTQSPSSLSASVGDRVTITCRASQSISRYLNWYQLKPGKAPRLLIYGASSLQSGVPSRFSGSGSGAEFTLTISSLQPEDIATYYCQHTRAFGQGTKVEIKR', 9.09),
  ('“AT” antibody variant N98E (heavy chain CDR3) (antibody, name in Kabat numbering, V domains shown, not shown: human IgG1 CH1, hinge, CH2 and CH3) VH: QVQLVQSGAEVRKPGASVKVSCKASGYDFSNYAIHWVRQAPGQRLEWMGWINAGNGNTKFSQKFQGRITVTRDTAASTAYMELRSLRSEDTAVYYCARDSSEMVRGIIIAYYFDYWGQGTLVTVSS VL: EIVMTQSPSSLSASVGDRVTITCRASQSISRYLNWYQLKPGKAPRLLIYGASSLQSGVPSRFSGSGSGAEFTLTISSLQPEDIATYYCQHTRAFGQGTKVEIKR', 8.88),
  ('“AT” antibody variant N98V (heavy chain CDR3) (antibody, name in Kabat numbering, V domains shown, not shown: human IgG1 CH1, hinge, CH2 and CH3) VH: QVQLVQSGAEVRKPGASVKVSCKASGYDFSNYAIHWVRQAPGQRLEWMGWINAGNGNTKFSQKFQGRITVTRDTAASTAYMELRSLRSEDTAVYYCARDSSVMVRGIIIAYYFDYWGQGTLVTVSS VL: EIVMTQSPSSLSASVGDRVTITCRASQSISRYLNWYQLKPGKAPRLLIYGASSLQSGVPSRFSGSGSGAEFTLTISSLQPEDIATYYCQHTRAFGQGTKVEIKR', 9.37),
  ('“AT” antibody variant N98W (heavy chain CDR3) (antibody, name in Kabat numbering, V domains shown, not shown: human IgG1 CH1, hinge, CH2 and CH3) VH: QVQLVQSGAEVRKPGASVKVSCKASGYDFSNYAIHWVRQAPGQRLEWMGWINAGNGNTKFSQKFQGRITVTRDTAASTAYMELRSLRSEDTAVYYCARDSSWMVRGIIIAYYFDYWGQGTLVTVSS VL: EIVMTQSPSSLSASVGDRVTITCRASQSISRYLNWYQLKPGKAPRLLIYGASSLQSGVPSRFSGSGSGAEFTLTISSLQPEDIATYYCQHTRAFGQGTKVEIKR', 8.53),
  ('“AT” antibody variant N98L (heavy chain CDR3) (antibody, name in Kabat numbering, V domains shown, not shown: human IgG1 CH1, hinge, CH2 and CH3) VH: QVQLVQSGAEVRKPGASVKVSCKASGYDFSNYAIHWVRQAPGQRLEWMGWINAGNGNTKFSQKFQGRITVTRDTAASTAYMELRSLRSEDTAVYYCARDSSLMVRGIIIAYYFDYWGQGTLVTVSS VL: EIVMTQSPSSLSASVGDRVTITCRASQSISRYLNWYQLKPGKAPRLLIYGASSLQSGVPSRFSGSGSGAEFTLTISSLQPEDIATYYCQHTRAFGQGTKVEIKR', 9.09);
